Where these numbers come from: ChEMBL document CHEMBL5058577

Test system: HEK-293T
Assay: Multiplex assay against HEK293T
Format: toxicity, cell-based
Conditions: human, 48 h, 1 µM, compound concentration 1 uM, replicate 1
Readout Type: Population Tubulin-Different-Phenotype (%)
Units required after the number.

For orientation, consider the following solved cases.
{"Molecule": "CC(C)C[C@H](CO)Nc1nc(S[C@@H](C)c2ccccc2)nc2nc(N)sc12", "System Under Test": "HEK-293T", "Result": "10%"}
{"Molecule": "CC(C)(C)c1ccc(CSc2cnn(C(C)(C)C)c(=O)c2Cl)cc1", "System Under Test": "HEK-293T", "Result": "14%"}
{"Molecule": "CCc1nn2c(C)cc(C)nc2c1Cc1ccc(-c2nnc(C3CCNCC3)o2)cc1", "System Under Test": "HEK-293T", "Result": "15%"}

Give me Population Tubulin-Different-Phenotype (%) for each of these molecules, listed below.
1. O=c1ccc2ccc(OCCCCN3CCN(c4cccc5sccc45)CC3)cc2[nH]1
2. Cc1c(Cc2ccc3ccccc3n2)c2cc(F)ccc2n1CC(=O)O
3. Cc1cc(-c2ccc3c(c2)CC[C@H]3N2CC3(CCN(C(=O)Cc4cn5cc(C)sc5n4)CC3)C2)ncn1
4. Cc1cc(O)c(-c2ccc([C@@H](C)CN(C)C)cc2)c2c1[nH]c(=O)c1sccc12
5. Nc1nc(CC(=O)Nc2ccc(CCNC[C@H](O)c3ccccc3)cc2)cs1

["28%", "6%", "9%", "76%", "10%"]

Need Population Tubulin-Different-Phenotype (%) for each of these molecules.
1. CN1CCN2c3ccccc3Cc3ccccc3C2C1.Cl (stereo not given) [MIANSERIN HYDROCHLORIDE]
2. CN(C)C/C=C/C(=O)Nc1ccc(C(=O)N2CCCC(Nc3ncc(Cl)c(-c4c[nH]c5ccccc45)n3)C2)cc1 (stereo not given)

1. 9%
2. 71%
